Data origin, for the record: patent US20250170248A1

- MEASURED ON: SMARCA4 (Homo sapiens, UniProt P51532)
- Construct: SMARCA2/SMARCA4 protein degradation selectivity in MV4-11 cells; endogenous in cells; host or cells: MV4-11
- Sequence (P51532 whole entry): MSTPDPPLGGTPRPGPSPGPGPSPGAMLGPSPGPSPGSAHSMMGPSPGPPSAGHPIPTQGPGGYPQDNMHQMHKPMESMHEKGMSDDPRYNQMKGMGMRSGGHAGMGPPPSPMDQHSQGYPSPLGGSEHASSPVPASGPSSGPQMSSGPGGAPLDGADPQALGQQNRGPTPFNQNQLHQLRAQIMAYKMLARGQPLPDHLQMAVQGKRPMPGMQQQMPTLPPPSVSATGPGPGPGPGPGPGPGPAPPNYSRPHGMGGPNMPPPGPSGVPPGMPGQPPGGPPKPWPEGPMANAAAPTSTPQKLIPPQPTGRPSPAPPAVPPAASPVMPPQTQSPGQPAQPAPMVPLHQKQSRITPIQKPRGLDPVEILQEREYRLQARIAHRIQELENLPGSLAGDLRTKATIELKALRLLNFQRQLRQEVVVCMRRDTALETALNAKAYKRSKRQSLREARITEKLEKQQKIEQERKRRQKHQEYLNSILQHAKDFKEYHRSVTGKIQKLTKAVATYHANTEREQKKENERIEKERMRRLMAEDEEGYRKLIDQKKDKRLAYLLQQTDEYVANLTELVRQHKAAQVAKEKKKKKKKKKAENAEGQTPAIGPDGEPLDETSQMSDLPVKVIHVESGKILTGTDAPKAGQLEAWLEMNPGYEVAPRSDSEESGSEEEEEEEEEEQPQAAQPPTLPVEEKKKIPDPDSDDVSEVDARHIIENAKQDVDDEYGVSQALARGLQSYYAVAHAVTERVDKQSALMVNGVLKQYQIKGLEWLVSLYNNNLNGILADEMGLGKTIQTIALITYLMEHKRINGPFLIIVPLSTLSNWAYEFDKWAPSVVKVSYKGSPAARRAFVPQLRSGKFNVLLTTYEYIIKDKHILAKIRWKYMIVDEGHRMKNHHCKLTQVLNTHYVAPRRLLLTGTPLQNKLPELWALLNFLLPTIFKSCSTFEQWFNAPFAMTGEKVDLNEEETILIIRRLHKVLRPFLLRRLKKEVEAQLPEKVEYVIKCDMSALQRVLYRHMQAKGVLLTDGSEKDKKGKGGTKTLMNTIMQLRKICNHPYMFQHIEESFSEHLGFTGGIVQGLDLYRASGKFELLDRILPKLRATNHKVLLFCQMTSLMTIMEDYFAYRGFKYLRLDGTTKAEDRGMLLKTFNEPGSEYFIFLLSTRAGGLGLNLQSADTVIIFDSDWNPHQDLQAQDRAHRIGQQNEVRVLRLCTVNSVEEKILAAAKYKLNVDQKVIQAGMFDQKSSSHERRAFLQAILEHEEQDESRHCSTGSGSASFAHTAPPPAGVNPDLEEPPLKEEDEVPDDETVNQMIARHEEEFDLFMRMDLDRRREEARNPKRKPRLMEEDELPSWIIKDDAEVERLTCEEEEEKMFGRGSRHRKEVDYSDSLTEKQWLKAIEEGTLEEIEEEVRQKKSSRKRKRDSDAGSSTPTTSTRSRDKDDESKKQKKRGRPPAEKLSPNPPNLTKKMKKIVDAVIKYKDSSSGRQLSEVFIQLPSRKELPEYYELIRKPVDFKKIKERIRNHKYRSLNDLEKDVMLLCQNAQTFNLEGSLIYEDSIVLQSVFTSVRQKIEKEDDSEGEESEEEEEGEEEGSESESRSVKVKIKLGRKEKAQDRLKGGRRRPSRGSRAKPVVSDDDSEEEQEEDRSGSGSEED
- MEASUREMENT NOTES: SMARCA4 Western blot degradation in MV4-11 cells
- Assay type: cell-based
- SETUP CONDITIONS: MV4-11 cells, 24 h; read-out: SMARCA4 MSD MV411 degradation 24 h: Mean external-Abs DC50
PARAMETER: DC50

Would you please look over these solved cases?
COMPOUND: C#Cc1ccc(CNC(=O)[C@@H]2C[C@@H](O)CN2C(=O)[C@@H](NC(=O)N2CC3(CC(N4CCC(c5cnc(N6CCc7[nH]c8nnc(-c9ccccc9O)cc8c7[C@H]6C)nc5)CC4)C3)C2)C(C)(C)C)c(F)c1
DC50: > 100 nM
--
COMPOUND: C#Cc1ccc(CNC(=O)[C@@H]2C[C@@H](O)CN2C(=O)[C@@H](NC(=O)N2CCN(C[C@@H]3CCN(c4cnc(N5CCc6[nH]c7nnc(-c8ccccc8O)cc7c6[C@H]5C)nc4)C3)CC2)C(C)(C)C)cc1 (single isomer, unassigned)
DC50: > 100 nM
--
COMPOUND: C#Cc1ccc(CNC(=O)[C@@H]2C[C@@H](O)CN2C(=O)[C@@H](NC(=O)[C@H]2CC3(C2)C[C@H](N2CCN(C(=O)CCN4CCN5c6cc(-c7ccccc7O)nnc6NC[C@H]5C4)CC2)C3)C(C)(C)C)cc1 (some centres unmarked) [I-274]
DC50: 10 to 100 nM

Give the reported value of DC50 for this record: "C#Cc1ccc(CNC(=O)[C@@H]2C[C@@H](O)CN2C(=O)[C@@H](NC(=O)N2CC3(CC(N4CCC(c5cnc(N6CCc7[nH]c8nnc(-c9ccccc9O)cc8c7[C@@H]6C)s5)CC4)C3)C2)C(C)(C)C)cc1" > 100 nM

Fill in reported DC50 for this entry: C#Cc1ccc(CNC(=O)[C@@H]2C[C@@H](O)CN2C(=O)[C@H](NC(=O)[C@H]2CCC3(CC2)C[C@H](N2CCN(c4cnc(N5CCN6c7cc(-c8ccccc8O)nnc7NC[C@H]6C5)nc4)CC2)C3)C(C)(C)CCO)c(Cl)c1 (single isomer, unassigned) [I-306] > 100 nM

Let me know recorded DC50 for Cc1ncsc1-c1ccc(CNC(=O)[C@@H]2C[C@@H](O)CN2C(=O)[C@@H](NC(=O)C2(F)CC2)C(C)(C)C)c(O[C@H]2CC[C@H](N3CCC(c4cnc(N5CCc6[nH]c7nnc(-c8ccccc8O)cc7c6[C@H]5C)nc4)CC3)CC2)c1 (single isomer, unassigned) , thanks. < 1 nM

Give reported DC50 value for C#Cc1ccc2c(c1)OCC[C@H]2NC(=O)[C@@H]1C[C@@H](O)CN1C(=O)[C@@H](NC(=O)N1CC2(CC(N3CCC(c4cnc(N5CCc6[nH]c7nnc(-c8ccccc8O)cc7c6[C@H]5C)nc4)CC3)C2)C1)C(C)(C)C (single isomer, unassigned) > 100 nM

Give the value of DC50 reported for the following: C#Cc1cc(Cl)c(CNC(=O)[C@@H]2C[C@@H](O)CN2C(=O)[C@@H](NC(=O)[C@H]2CC3(C2)C[C@H](N2CCC(N4CCC(N5CCN6c7cc(-c8ccccc8O)nnc7NC[C@H]6C5)CC4)CC2)C3)C(C)(C)C)c(OC)c1 (single isomer, unassigned) [I-328] > 100 nM
